# Protocol: Solubility of dyestuffs in water
# Assay type: physicochemical
# Experimental Context: Table 3, dyestuff of Example 13 structure, chloride, 50° C., read-out: Solubility in water at 50° C.
Observation Type: solubility (mg/mL)

{"Compound": "CCN(CC[n+]1ccc(C)cc1)c1ccc(N=Nc2ccc([N+](=O)[O-])cc2Cl)cc1 [γ-picoline (Table 3)]", "Quantitative Result": 240}
{"Compound": "CCN(CC[n+]1ccccc1)c1ccc(N=Nc2ccc([N+](=O)[O-])cc2Cl)cc1 [Pyridine (Table 3)]", "Quantitative Result": 300}

* * *

# Protocol: Solubility of dyestuffs in water
# Format: physicochemical
# Experimental Context: Table 4, dyestuff of Example 19 structure, acid sulphate, 50° C., read-out: Solubility in water at 50° C.
Observation Type: solubility (mg/mL)

(1) CCN(CC[n+]1ccc(C)cc1)c1ccc(N=Nc2c(Cl)cc([N+](=O)[O-])cc2Cl)cc1
(2) CCN(CC[n+]1ccccc1)c1ccc(N=Nc2c(Cl)cc([N+](=O)[O-])cc2Cl)cc1
Hi, I'm comparing two records. Which one has the lower solubility, 1 or 2 ? Refer to your chosen entry by its label in the reply.
1
(1: 5 mg/mL, 2: 20 mg/mL)
